Target: Cholecystokinin receptor type A (Cavia porcellus, UniProt Q63931)
Sequence (Q63931 whole entry): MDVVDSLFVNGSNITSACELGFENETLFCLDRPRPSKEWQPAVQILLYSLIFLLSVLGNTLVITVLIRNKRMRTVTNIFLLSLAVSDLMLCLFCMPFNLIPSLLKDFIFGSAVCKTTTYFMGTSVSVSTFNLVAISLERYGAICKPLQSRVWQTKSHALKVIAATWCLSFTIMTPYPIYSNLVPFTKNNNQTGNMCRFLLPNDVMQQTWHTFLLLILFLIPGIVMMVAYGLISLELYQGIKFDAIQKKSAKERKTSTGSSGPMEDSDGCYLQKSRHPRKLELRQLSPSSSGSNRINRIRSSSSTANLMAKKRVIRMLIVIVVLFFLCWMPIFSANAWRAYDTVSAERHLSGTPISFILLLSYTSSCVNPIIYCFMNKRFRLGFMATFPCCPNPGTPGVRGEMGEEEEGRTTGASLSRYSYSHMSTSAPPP
Where a SMILES comes first, the peptide text is derived from it. The star is where a group is joined. Hydrocinnamoyl(4-Me) = Cc1ccc(CCC(=O)*)cc1; X20 = CC(=O)Oc1ccc2cc(C(=O)*)ccc2c1; X24 = O=C(/C=C/c1c[nH]c2ccccc12)*; X29 = O=C(/C=C\c1cccc(O)c1)*; Boc = CC(C)(C)OC(=O)*

>  <compound>
CC(C)(C)OC(=O)N[C@@H](Cc1c[nH]c2ccccc12)C(=O)N[C@@H](CCCCNC(=O)/C=C\c1cccc(O)c1)C(=O)N[C@@H](CC(=O)O)C(=O)N[C@@H](Cc1ccccc1)C(N)=O (Boc-WK(X29)DF-NH2)

>  <IC50 (nM)>
22

$$$$
>  <compound>
Cc1ccc(CCC(=O)NCCCC[C@H](NC(=O)[C@H](Cc2c[nH]c3ccccc23)NC(=O)OC(C)(C)C)C(=O)N[C@@H](CC(=O)O)C(=O)N[C@@H](Cc2ccccc2)C(N)=O)cc1 (Boc-WK(Hydrocinnamoyl(4-Me))DF-NH2)

>  <IC50 (nM)>
290

$$$$
>  <compound>
CC(=O)Oc1ccc2cc(C(=O)NCCCC[C@H](NC(=O)[C@H](Cc3c[nH]c4ccccc34)NC(=O)OC(C)(C)C)C(=O)N[C@@H](CC(=O)O)C(=O)N[C@@H](Cc3ccccc3)C(N)=O)ccc2c1 (Boc-WK(X20)DF-NH2)

>  <IC50 (nM)>
8

$$$$
>  <compound>
CC(C)(C)OC(=O)N[C@@H](Cc1c[nH]c2ccccc12)C(=O)N[C@@H](CCCCNC(=O)/C=C/c1c[nH]c2ccccc12)C(=O)N[C@@H](CC(=O)O)C(=O)N[C@@H](Cc1ccccc1)C(N)=O (Boc-WK(X24)DF-NH2)

>  <IC50 (nM)>
19

$$$$
